Conditions: in methyl acetate, 308.15 K
Observed Property: solubility (mole fraction)
// return just the number, without any unit appended

(Q) Look up solubility (mole fraction) for this compound: `CC(=O)c1ccc(O)cc1O`
(A) 0.155

* * *

Settings: in n-butanol, 328.15 K
Observed Property: solubility (mole fraction)
// return just the number, without any unit appended

(Q) Look up solubility (mole fraction) for this compound: `CC(=O)c1ccc(O)cc1O`
(A) 0.233

* * *

Conditions: in n-propanol, 308.15 K
Observed Property: solubility (mole fraction)
// return just the number, without any unit appended

(Q) Look up solubility (mole fraction) for this molecule: `CC(=O)c1ccc(O)cc1O`
(A) 0.151
